Target: C. elegans PEX-5 TPR domain (267 aa), Gal4p DNA-binding domain fusion (pSL8) (C. elegans)
Experiment: two-hybrid; yeast strain PCY3; Pex5 TPR domain in pGBT9 (Gal4p DNA-binding domain) with Gal4p activation domain-peptide fusions in pGAD GH; b-galactosidase activity measured with O-nitrophenyl-b-D-galactoside on cells grown at 30 C in liquid selective medium; mean of three independent experiments per strain
Settings: scale: nmol O-nitrophenyl-b-D-galactoside hydrolysed/min/mg protein
Where no end group is shown, it is not given here.
Classification by b-Galactosidase activity follows these ranges: I = under 60, II = from 60 up to 400, III = 400 and over

See these solved cases before continuing.
>  <BINDER>
Gal4p-SGGVVARAAKM

>  <ANSWER_LABEL>
II

$$$$
>  <BINDER>
Gal4p-KRVWRRQWSTGRKLKL

>  <ANSWER_LABEL>
I

$$$$
>  <BINDER>
Gal4p-EGLIVMLERGKL

>  <ANSWER_LABEL>
II

$$$$
>  <BINDER>
Gal4p-GKNRGSESHGSARQKL

>  <ANSWER_LABEL>
I

$$$$
>  <BINDER>
Gal4p-NGMTRSGRQGGGFAKL

>  <ANSWER_LABEL>
II

$$$$
>  <BINDER>
Gal4p-TWNRETKGLNAVYGKL

>  <ANSWER_LABEL>
II

$$$$

Exercise: Band for the recorded b-Galactosidase activity of Gal4p-RQRELSANALGGLAKL ?
Key: III

Exercise: Which bin, given its b-Galactosidase activity, does Gal4p-QRKANGRDRGGWWAKL occupy?
Key: III

Exercise: Which band does Gal4p-WYGPGPGCCRRRDLKL (cysteine pairing not given here) fall in?
Key: I
